The following compounds are listed with their measured Papp values.
Assay overview: Permeability of the compound by PAMPA method at pH 7.4
Format: ADME
Condition context: read-out: permeability
# unit: ×10⁻⁶ cm/s | format: bare number

COc1cccc2c(=O)c3c([nH]c12)CCCC3; 16
O=c1c2c([nH]c3c(C(F)(F)F)cccc13)CCCC2; 246
COc1cc2[nH]c3c(c(=O)c2cc1OC)CCCC3; 1

**Query** # lookup: Papp of "O=c1c2c([nH]c3cc(-c4ccc(Oc5ccc(OC(F)(F)F)cc5)cc4)ccc13)CCCC2"
**Result** 18

**Query** Recorded Papp for "Cc1ccc2c(=O)c3c([nH]c2c1C)CCCC3" , please?
**Result** 42

**Query** Returns the measured Papp for the input compound. Input: "O=c1c2c([nH]c3ccccc13)CCCC2"
**Result** 10

**Query** Requested read-out: Papp. Entry: "Cc1cccc2[nH]c3c(c(=O)c12)CCCC3"
**Result** 87

**Query** Give the measured Papp of "O=c1c2c([nH]c3cc(-c4ccc(C(F)(F)F)cc4)ccc13)CCCC2" .
**Result** 250

**Query** I am curious: what Papp value has been reported for "O=c1c2c([nH]c3cc(Cl)c(Cl)cc13)CCCC2" ?
**Result** 180

----------
Assay overview: Aqueous solubility of compound at pH 7.4 by HPLC analysis
Condition context: buffer
Parameter: log10(solubility) (log10 of the value in µM)
Record value = log10 of solubility given in µM.

Answered examples (3):
Cc1cc(C)c2[nH]c3c(c(=O)c2c1)CCCC3; 2.03
O=c1c2c([nH]c3ccc(-c4ccc(COc5ccccc5)cc4)cc13)CCSC2; 0.00
CC1(C)CCc2c([nH]c3cc(Cl)ccc3c2=O)C1; 0.00

**Query** Please report the recorded log10(solubility) for "COc1cccc2c(=O)c3c([nH]c12)CC(C)(C)CC3" .
**Result** 1.96

**Query** Item under review: "COc1ccc2c(=O)c3c([nH]c2c1OC)CCCC3" . Reported log10(solubility)?
**Result** 2.24

**Query** Can you share its log10(solubility)? I mean this compound: "CC1(C)CCc2[nH]c3ccc(Cl)cc3c(=O)c2C1"
**Result** 0.00

**Query** Looking for the measured log10(solubility) of "COc1ccc2c(=O)c3c([nH]c2c1)CCCCCC3" , can you help?
**Result** 1.99

**Query** Which log10(solubility) is listed for "COc1ccc2c(=O)c3c([nH]c2c1)CCC(F)(F)C3" ?
**Result** 1.15

----------
Assay overview: Partition coefficient, log D of the compound at pH 7.4 by HPLC analysis
Condition context: octanol/water
Quick reference for logD among some compounds
Write no unit; give the number alone.

COc1ccc2[nH]c3c(c(=O)c2c1)CC(C)(C)CC3; 2
O=c1c2c([nH]c3cc(F)ccc13)CCCC2; 1.7

**Query** Recorded logD of "Cc1ccc2c(=O)c3c([nH]c2c1C)CCCC3" , please.
**Result** 2.2

**Query** Sample "CC1(C)CCc2c([nH]c3cc(Cl)ccc3c2=O)C1" — what was its logD?
**Result** 2.9

**Query** Query: logD; subject: "CC1(C)CCc2c([nH]c3cccc(Cl)c3c2=O)C1"
**Result** 2.5
